- measurement_target: S. pyogenes SKKanGAS, kanamycin survival, BacTiterGlo, 6 h
- method: S. pyogenes SKKanGAS kanamycin growth inhibitors – SKKanGAS strain, luminescence, dose confirmation, streptokinase promoter inhibitor project, dose response (AID 1902);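 note: lower survival reflects blocked streptokinase promoter driving kanamycin resistance gene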
quantity_measured: EC50

Entry under test: "O=C(CCc1ccccc1)Nc1nnc(-c2ccc3c(c2)CCCC3)o1" . Its EC50 was 1590 nM

***
Entry under test: "CCOc1ccc(N=Nc2ccc(O)c3ncccc23)cc1" . Its EC50 was 186 nM

Entry under test: CC(=O)[C@@]1(O)C(C)CC2C3C=C(C)C4=Cc5c(cnn5-c5ccccc5)C[C@]4(C)C3C(O)C[C@@]21C (some centres undefined) . Its EC50 was 3560 nM

Entry under test: "Cc1ccc(C)c(-c2cc(C(=O)Nc3sc(C)c(C)c3C(N)=O)c3ccccc3n2)c1" . Its EC50 was 3550 nM
